biological target: HLA-B*54:01; assay: IEDB peptide-MHC binding, purified MHC/competitive/radioactivity; filed as Kd, often an IC50 or EC50 that approximates it; bounds were set here for any values at or beyond the usual limits of such assays; settings: source organism: Hepatitis C virus (isolate 1)
metric: Kd (µM)
Record the value in µM, omitting the unit from your answer.

Data point: HPNIEEVAL ; Kd = 4.57

====

target: HLA-A*68:01; test: IEDB peptide-MHC binding, purified MHC/competitive/radioactivity; filed as Kd, often an IC50 or EC50 that approximates it; bounds were set here for any values at or beyond the usual limits of such assays; settings: source organism: Mammarenavirus guanaritoense
metric: Kd (µM)
Use µM as the unit, but write only the number.

What the record says about TKTAVNMLTH : Kd is 0.87

====

biological target: HLA-A*31:01; test: IEDB peptide-MHC binding, purified MHC/direct/fluorescence; filed as Kd, often an IC50 or EC50 that approximates it; bounds were set here for any values at or beyond the usual limits of such assays; settings: source organism: Salmonella enterica
pKd: −log10 of the molar value.
metric: pKd

So for EEQTDPKTL , the logged pKd turned out to be ≤ 4.70

====

biological target: HLA-B*18:01; assay: IEDB peptide-MHC binding, purified MHC/direct/fluorescence; filed as Kd, often an IC50 or EC50 that approximates it; bounds were set here for any values at or beyond the usual limits of such assays; details: source organism: Mycobacterium tuberculosis C
metric: Kd

// field: Kd; key: TPKIRFWHV ; value = ≥ 20 µM

====

molecular target: HLA-B*15:17; test: IEDB peptide-MHC binding, purified MHC/competitive/fluorescence; filed as Kd, often an IC50 or EC50 that approximates it; bounds were set here for any values at or beyond the usual limits of such assays; conditions: source organism: Vibrio parahaemolyticus RIMD 2210633
metric: Kd (nM)
All answers are understood in nM, so give the number only.

Measured Kd, RSTLANGWY : 1.2

====

target: HLA-A*03:01; test: IEDB peptide-MHC binding, purified MHC/direct/fluorescence; filed as Kd, often an IC50 or EC50 that approximates it; bounds were set here for any values at or beyond the usual limits of such assays; conditions: source organism: Yersinia pestis
pKd: −log10 of the molar value.
metric: pKd

// YGIPFPGSL : pKd value = ≤ 4.70

====

target: HLA-B*35:01; assay: IEDB peptide-MHC binding, purified MHC/direct/fluorescence; filed as Kd, often an IC50 or EC50 that approximates it; bounds were set here for any values at or beyond the usual limits of such assays; settings: source organism: Yersinia pestis
metric: Kd
Give the value; after it, write the unit.

Sample YGIPFPGSL , system: HLA-B*35:01. Its Kd is 120 nM

====

target: HLA-B*15:01; assay: IEDB peptide-MHC binding, purified MHC/direct/fluorescence; filed as Kd, often an IC50 or EC50 that approximates it; bounds were set here for any values at or beyond the usual limits of such assays; settings: source organism: Campylobacter jejuni
metric: pKd
Scale: negative log10 of molar concentration, which is what pKd denotes.

Entry KSNEKNMDF , HLA-B*15:01 data, pKd value: 6.67

====

molecular target: HLA-B*07:02; assay: IEDB peptide-MHC binding, purified MHC/direct/fluorescence; filed as Kd, often an IC50 or EC50 that approximates it; bounds were set here for any values at or beyond the usual limits of such assays; conditions: source organism: Vibrio parahaemolyticus
pKd: −log10 of the molar value.
metric: pKd

The sequence RTHTLRDAK showed pKd equal to ≤ 4.70

====

biological target: HLA-A*26:01; experiment: IEDB peptide-MHC binding, purified MHC/competitive/fluorescence; filed as Kd, often an IC50 or EC50 that approximates it; bounds were set here for any values at or beyond the usual limits of such assays; settings: source organism: Reston ebolavirus
pKd: −log10 of the molar value.
metric: pKd

Documented pKd of RRELSKEKL : ≤ 4.70

====

molecular target: HLA-A*23:01; experiment: IEDB peptide-MHC binding, purified MHC/competitive/fluorescence; filed as Kd, often an IC50 or EC50 that approximates it; bounds were set here for any values at or beyond the usual limits of such assays; conditions: source organism: Giardia lamblia ATCC 50803
pKd: −log10 of the molar value.
Quick reference: pKd of the listed items.

sequence-data	system-tested	pKd
TEDDWITYI	HLA-A*23:01	≤ 4.70

// moving on: another record for pKd
Recorded result, NAMGADYYA , pKd: ≤ 4.70

====

molecular target: HLA-B*07:02; assay: IEDB peptide-MHC binding, purified MHC/direct/fluorescence; filed as Kd, often an IC50 or EC50 that approximates it; bounds were set here for any values at or beyond the usual limits of such assays; conditions: source organism: Pseudomonas savastanoi
metric: Kd

Entry TYYPQVVLG under HLA-B*07:02 had Kd of ≥ 20 µM

====

Readings of Kd for the listed sequences
molecular target: HLA-A*02:16; assay: IEDB peptide-MHC binding, purified MHC/competitive/fluorescence; filed as Kd, often an IC50 or EC50 that approximates it; bounds were set here for any values at or beyond the usual limits of such assays; conditions: source organism: Entamoeba histolytica HM-1:IMSS

GET /value?item= EVRKAIEFV &field=Kd returns ≥ 20 µM

Kd in this record for WAKLLKQKW : ≥ 20 µM

====

target: HLA-B*39:01; assay: IEDB peptide-MHC binding, purified MHC/competitive/fluorescence; filed as Kd, often an IC50 or EC50 that approximates it; bounds were set here for any values at or beyond the usual limits of such assays; conditions: source organism: Helicobacter pylori 26695
pKd: −log10 of the molar value.
metric: pKd

Recorded result, GIVCYNEEV , pKd: ≤ 4.70

====

target: HLA-A*11:01; experiment: IEDB peptide-MHC binding, purified MHC/competitive/radioactivity; filed as Kd, often an IC50 or EC50 that approximates it; bounds were set here for any values at or beyond the usual limits of such assays; details: source organism: Dengue virus 2 Jamaica/1409/1983
metric: pKd
Quick note: pKd values are minus log10 of concentrations in mol/L.

sequence-data	system-tested	pKd
TTLSRTSKK	HLA-A*11:01	6.80
MVLLQMEDK	HLA-A*11:01	5.70

Could you now look at the following sequence, please?
pKd reported for this sequence GQLKLNWFK : 7.55

====

Below is a list of entries, each paired with its recorded pIC50 value.
biological target: HLA-A*02:01; assay: IEDB peptide-MHC binding, purified MHC/competitive/fluorescence; bounds were set here for any values at or beyond the usual limits of such assays; conditions: source organism: Sudan ebolavirus
// scale note: pIC50 = -log10(conc_M); give the bare number

Below, 3 sequences whose answers are already recorded.
sequence-data	pIC50
FLFQLNDTI	6.59
FIDNPLPNQ	4.55
SNGLITSTV	4.22

Consider TLFKIDNNT . Its measured pIC50 is 4.73

Entry YLEYEIENF — recorded pIC50 = 4.37

====

molecular target: HLA-A*02:06; test: IEDB peptide-MHC binding, purified MHC/competitive/radioactivity; filed as Kd, often an IC50 or EC50 that approximates it; bounds were set here for any values at or beyond the usual limits of such assays; conditions: source organism: Mammarenavirus guanaritoense
metric: Kd

Data point: KNAGYLVGR ; Kd = ≥ 77 µM

====

molecular target: HLA-B*07:02; assay: IEDB peptide-MHC binding, purified MHC/direct/fluorescence; filed as Kd, often an IC50 or EC50 that approximates it; bounds were set here for any values at or beyond the usual limits of such assays; details: source organism: Salmonella enterica
pKd: −log10 of the molar value.
metric: pKd

Entry EEQTDPKTL — recorded pKd = ≤ 4.70

====

biological target: HLA-A*26:01; experiment: IEDB peptide-MHC binding, purified MHC/competitive/fluorescence; filed as Kd, often an IC50 or EC50 that approximates it; bounds were set here for any values at or beyond the usual limits of such assays; conditions: source organism: Camelpox virus CMS
pKd: −log10 of the molar value.
metric: pKd

Reported pKd ( WVIDTLNGI ) = ≤ 4.70

====

target: HLA-B*27:20; test: IEDB peptide-MHC binding, purified MHC/competitive/fluorescence; filed as Kd, often an IC50 or EC50 that approximates it; bounds were set here for any values at or beyond the usual limits of such assays; details: source organism: Mycobacterium tuberculosis H37Ra
metric: Kd (µM)
Give the value, in units of µM, as a plain number.

Tested system HLA-B*27:20; Kd recorded for LEMQHLISL was 1.11

====

target: HLA-B*15:01; experiment: IEDB peptide-MHC binding, purified MHC/competitive/fluorescence; filed as Kd, often an IC50 or EC50 that approximates it; bounds were set here for any values at or beyond the usual limits of such assays; conditions: source organism: Fowlpox virus
pKd: −log10 of the molar value.
metric: pKd

Recorded pKd (sequence VIMWYNYLF ): ≤ 4.70

====

molecular target: HLA-B*15:01; test: IEDB peptide-MHC binding, purified MHC/direct/fluorescence; filed as Kd, often an IC50 or EC50 that approximates it; bounds were set here for any values at or beyond the usual limits of such assays; conditions: source organism: Camelpox virus M-96
metric: Kd

Entry GLYRLNFRR , Kd reported as ≥ 20 µM
